Tested on: LOX IMVI
Experiment: NCI tumour cell line growth inhibition, 48 h
Calls of active or inactive are those of the source. No stated cut-off is given here; in the data, active = GI50 up to about 1.1 µM and inactive = higher.
property_measured: GI50

Item: COc1ccc(C2NC(c3ccc(OC)cc3)C(C)C(=O)C2C)cc1 (stereo not drawn) Test system: LOX IMVI Read-out: GI50 Value: ?
> 100 µM (inactive)

Here is the next compound: `Cc1ccc2nc3c(C)c(Cl)c(=O)cc-3sc2c1`
13.9 µM (inactive)

Now try `NC(=O)/C(=C\c1ccncc1)c1cccc2ccccc12` .
> 100 µM (inactive)

// same read-out, input: `CCCCCCCCCCCCCS(=O)(=O)NCC(N)=O`
> 100 µM (inactive)

Note, next up: NC(Cc1ccc(OCc2ccccc2)cn1)C(=O)O (stereo not drawn)
> 100 µM (inactive)

Repeat with `Nc1ccccc1N`
> 100 µM (inactive)

Then what about the compound CC(Br)C(=O)c1ccc2cc(Br)c3ccccc3c2c1 (stereo not drawn) ?
6.79 µM (inactive)

// same read-out, input: COP(=O)(OC)C(O)/C=C/c1ccco1 (stereo not drawn)
> 100 µM (inactive)

Now the compound `N/C(=N\O)N/N=C/c1cc(I)cc(I)c1O`
25.4 µM (inactive)

Do the same for N#CC12Cc3cc4c(cc3-c3cccc(c31)CCN2C(=O)c1ccccc1)OCO4 (stereo not drawn) please
> 100 µM (inactive)

Then this compound: `CC(=O)C1=C(O)/C(=C\c2ccco2)OC1=O`
> 10 µM (inactive)

Record: `COC(=O)/C(=C\Nc1cccc(C)n1)S(=O)(=O)c1ccc(C)cc1`
79.4 µM (inactive)

// repeat for ICC1CCCO1 (stereo not drawn) and report
> 100 µM (inactive)
